Each entry below carries its reported IC50, inhibition of IL-17 production.
EXPERIMENTAL_TARGET: T1, recombinant human IL-23 (hrIL-23), produced at Centocor (human, UniProt P29460 23-328)
T1 sequence 1: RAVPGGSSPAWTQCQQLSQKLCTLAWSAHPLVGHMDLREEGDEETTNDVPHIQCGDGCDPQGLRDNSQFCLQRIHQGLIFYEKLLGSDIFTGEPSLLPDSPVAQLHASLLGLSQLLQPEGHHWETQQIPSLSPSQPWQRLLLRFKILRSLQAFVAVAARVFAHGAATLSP
T1 sequence 2: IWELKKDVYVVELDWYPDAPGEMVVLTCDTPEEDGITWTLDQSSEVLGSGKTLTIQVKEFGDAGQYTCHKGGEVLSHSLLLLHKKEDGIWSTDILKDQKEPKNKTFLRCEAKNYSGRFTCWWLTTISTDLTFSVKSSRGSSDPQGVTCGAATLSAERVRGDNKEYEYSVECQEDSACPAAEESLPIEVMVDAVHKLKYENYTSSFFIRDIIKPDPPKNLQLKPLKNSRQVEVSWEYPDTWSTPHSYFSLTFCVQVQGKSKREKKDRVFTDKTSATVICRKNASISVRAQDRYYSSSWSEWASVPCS
EXPERIMENT: cell-based or functional assay
MEASURED_QUANTITY: IC50, inhibition of IL-17 production (µg/mL)

# BINDER, UNIT_OF_MEASUREMENT, REPORTED
measured = [
    ("MOR05059 mAb (antibody, human IgG1, V domains shown) VH: QVELVQSGAEVKKPGESLKISCKGSGYSFSNYWIGWVRQMPGKGLEWMGIIDPSNSYTNYSPSFQGQVTISADKSISTAYLQWSSLKASDTAMYYCARWYYKPFDVWGQGTLVTVSS VL: DIVLTQPPSVSGAPGQRVTISCTGSSSNIGSGYDVHWYQQLPGTAPKLLIYGNSKRPSGVPDRFSGSKSGTSASLAITGLQSEDEADYYCASWTDGLSLVVFGGGTKLTVL", "µg/mL", 0.0106),
    ("MOR05045 mAb (antibody, human IgG1, V domains shown) VH: QVELVQSGAEVKKPGESLKISCKGSGYSFSNYWIGWVRQMPGKGLEWMGIISPTGSATWYSPSFQGQVTISADKSISTAYLQWSSLKASDTAMYYCARWYYKPFDVWGQGTLVTVSS VL: DIVLTQPPSVSGAPGQRVTISCTGSSSNIGSGYDVHWYQQLPGTAPKLLIYGNSKRPSGVPDRFSGSKSGTSASLAITGLQSEDEADYYCSSWTPSSVVFGGGTKLTVL", "µg/mL", 0.0014),
    ("MOR05061 mAb (antibody, human IgG1, V domains shown) VH: QVELVESGGGLVQPGGSLRLSCAASGFTFSSFGMSWVRQAPGKGLEWVSNISSSGSSTYYADSVKGRFTISRDNSKNTLYLQMNSLRAEDTAVYYCARYWGTPYLMQFDNWGQGTLVTVSS VL: DIALTQPASVSGSPGQSITISCTGTSSDVGGYNSVSWYQQHPGKAPKLMIYSVSSRPSGVSNRFSGSKSGNTASLTISGLQAEDEADYYCSSYYFYLQRIVFGGGTKLTVL", "µg/mL", 0.309),
    ("MOR05044 mAb (antibody, human IgG1, V domains shown) VH: QVELVQSGAEVKKPGESLKISCKGSGYSFSNYWIGWVRQMPGKGLEWMGIISPSGSTTWYSPSFQGQVTISADKSISTAYLQWSSLKASDTAMYYCARWYYKPFDVWGQGTLVTVSS VL: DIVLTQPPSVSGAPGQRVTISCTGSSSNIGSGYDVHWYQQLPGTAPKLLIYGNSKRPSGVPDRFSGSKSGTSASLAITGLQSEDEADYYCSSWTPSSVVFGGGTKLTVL", "µg/mL", 0.0141),
    ("MOR05039 mAb (antibody, human IgG1, V domains shown) VH: QVELVESGGGLVQPGGSLRLSCAASGFTFSSFGMSWVRQAPGKGLEWVSNIEHKYLNYATYYAASVKGRFTISRDNSKNTLYLQMNSLRAEDTAVYYCARYWGTPYLMQFDNWGQGTLVTVSS VL: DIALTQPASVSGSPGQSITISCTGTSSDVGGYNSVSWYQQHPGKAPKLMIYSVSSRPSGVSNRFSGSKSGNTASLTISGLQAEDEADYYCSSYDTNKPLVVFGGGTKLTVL", "µg/mL", 0.161),
    ("MOR04649 mAb (antibody, human IgG1, V domains shown) VH: QVELVQSGAEVKKPGESLKISCKGSGYSFSNYWIGWVRQMPGKGLEWMGIIDPSNSYTNYSPSFQGQVTISADKSISTAYLQWSSLKASDTAMYYCARWYYKPFDVWGQGTLVTVSS VL: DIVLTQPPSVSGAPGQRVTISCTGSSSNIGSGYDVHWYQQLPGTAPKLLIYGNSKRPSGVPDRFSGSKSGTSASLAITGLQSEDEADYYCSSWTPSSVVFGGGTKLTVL", "µg/mL", 0.276),
    ("MOR05048 mAb (antibody, human IgG1, V domains shown) VH: QVELVESGGGLVQPGGSLRLSCAASGFTFSSFGMSWVRQAPGKGLEWVSNIEHKFMGYTTYYAAGVKGRFTISRDNSKNTLYLQMNSLRAEDTAVYYCARYWGTPYLMQFDNWGQGTLVTVSS VL: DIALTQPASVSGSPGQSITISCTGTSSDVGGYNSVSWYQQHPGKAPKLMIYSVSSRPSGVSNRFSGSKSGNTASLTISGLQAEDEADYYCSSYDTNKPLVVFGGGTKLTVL", "µg/mL", 0.0162),
    ("MOR05051 mAb (antibody, human IgG1, V domains shown) VH: QVELVESGGGLVQPGGSLRLSCAASGFTFSSFGMSWVRQAPGKGLEWVSQIEHKYLSYTTLYAASVKGRFTISRDNSKNTLYLQMNSLRAEDTAVYYCARYWGTPYLMQFDNWGQGTLVTVSS VL: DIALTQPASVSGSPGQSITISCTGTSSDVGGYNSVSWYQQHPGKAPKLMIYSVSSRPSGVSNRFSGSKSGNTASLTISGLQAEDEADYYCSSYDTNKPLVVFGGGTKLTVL", "µg/mL", 0.0663),
    ("MOR05063 mAb (antibody, human IgG1, V domains shown) VH: QVELVESGGGLVQPGGSLRLSCAASGFTFSSFGMSWVRQAPGKGLEWVSNISSSGSSTYYADSVKGRFTISRDNSKNTLYLQMNSLRAEDTAVYYCARYWGTPYLMQFDNWGQGTLVTVSS VL: DIALTQPASVSGSPGQSITISCTGTSSDVGGYNSVSWYQQHPGKAPKLMIYSVSSRPSGVSNRFSGSKSGNTASLTISGLQAEDEADYYCGSWDPIFSYEVFGGGTKLTVL", "µg/mL", 0.198),
    ("MOR05056 mAb (antibody, human IgG1, V domains shown) VH: QVELVESGGGLVQPGGSLRLSCAASGFTFSSFGMSWVRQAPGKGLEWVSSIEHKYLSYATYYAAGVKGRFTISRDNSKNTLYLQMNSLRAEDTAVYYCARYWGTPYLMQFDNWGQGTLVTVSS VL: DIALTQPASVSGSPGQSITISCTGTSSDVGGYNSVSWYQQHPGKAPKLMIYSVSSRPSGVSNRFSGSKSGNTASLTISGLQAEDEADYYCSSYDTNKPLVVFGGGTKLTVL", "µg/mL", 0.092),
]
